Provide the reported IC50 of each item.
test system: SUDHL10; experiment: Induction of cytotoxicity (Assay 6), SUDHL10; conditions: read-out: Cytotox SUDHL10 [M] (median) IC50, CellTiter-Glo, 5 hours, SUDHL10
Could you give me the number in M? Just the number is fine.

Please look up its IC50: Cc1c2c(nn1C)CN(C)S(=O)(=O)CCCn1c(C(=O)O)c(CCCOc3cccc4ccccc34)c3ccc(Cl)c-2c31 (single isomer, unassigned; enantiomer 1) [Example 5] 7.1e-07

Please look up its IC50: CCc1c2c(nn1C)CN(C)S(=O)(=O)CCCn1c(C(=O)O)c(CCCOc3cccc4cc(F)ccc34)c3ccc(Cl)c-2c31 (single isomer, unassigned; enantiomer 1) [Example 36] 2.4e-07

Please look up its IC50: CCc1c2c(nn1C)C(N1CCOCC1)CCN(C)S(=O)(=O)CCCn1c(C(=O)O)c(CCCOc3cccc4cc(F)ccc34)c3ccc(Cl)c-2c31 (single isomer, unassigned; enantiomer 2) [Example 71] 1.5e-07

Please look up its IC50: Cc1c2c(nn1C)CNS(=O)(=O)CCCn1c(C(=O)O)c(CCCOc3cccc4cc(F)ccc34)c3ccc(Cl)c-2c31 (single isomer, unassigned; enantiomer 2) [Example 52] 1.7e-05

Please look up its IC50: Cc1c2c(nn1C)CN(C1CC1)S(=O)(=O)CCCn1c(C(=O)O)c(CCCOc3cccc4ccccc34)c3ccc(Cl)c-2c31 [Example 40] 3.9e-06
